Target: Protein Mdm4 (Homo sapiens) + E3 ubiquitin-protein ligase Mdm2 (Homo sapiens) (UniProt O15151+Q00987)
Sequence (O15151 whole entry, looked up): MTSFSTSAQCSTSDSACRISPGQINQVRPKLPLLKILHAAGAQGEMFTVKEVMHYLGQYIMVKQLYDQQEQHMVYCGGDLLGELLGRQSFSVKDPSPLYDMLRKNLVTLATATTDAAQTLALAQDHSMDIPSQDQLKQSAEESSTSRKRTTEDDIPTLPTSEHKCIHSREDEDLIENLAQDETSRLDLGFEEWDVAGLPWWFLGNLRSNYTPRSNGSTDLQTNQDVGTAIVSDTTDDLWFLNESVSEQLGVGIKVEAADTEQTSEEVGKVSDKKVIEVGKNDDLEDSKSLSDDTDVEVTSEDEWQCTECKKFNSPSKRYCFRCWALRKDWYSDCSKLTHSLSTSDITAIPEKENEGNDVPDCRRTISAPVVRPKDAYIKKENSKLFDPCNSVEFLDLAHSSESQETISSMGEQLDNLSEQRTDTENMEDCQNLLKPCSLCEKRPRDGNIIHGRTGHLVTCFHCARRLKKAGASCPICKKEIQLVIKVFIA
Sequence (Q00987 whole entry, looked up): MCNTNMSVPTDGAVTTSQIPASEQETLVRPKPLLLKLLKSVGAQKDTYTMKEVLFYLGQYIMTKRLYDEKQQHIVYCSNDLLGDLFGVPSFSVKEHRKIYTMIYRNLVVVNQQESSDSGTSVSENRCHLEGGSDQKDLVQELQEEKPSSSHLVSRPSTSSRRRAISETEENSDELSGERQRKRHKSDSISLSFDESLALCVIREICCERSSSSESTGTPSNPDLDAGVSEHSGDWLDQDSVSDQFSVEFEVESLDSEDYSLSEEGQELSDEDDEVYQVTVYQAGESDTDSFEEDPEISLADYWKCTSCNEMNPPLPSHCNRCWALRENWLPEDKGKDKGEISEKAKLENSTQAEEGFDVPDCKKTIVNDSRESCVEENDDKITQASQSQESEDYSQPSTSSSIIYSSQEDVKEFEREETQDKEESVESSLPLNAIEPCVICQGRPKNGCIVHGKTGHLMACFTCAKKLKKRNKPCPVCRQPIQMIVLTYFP
Experiment: inhibitors of human Mdm2-MdmX association, primary screen, cell-based, luminescence, split luciferase, SaOS-2, uHTS (AID 485346)
Conditions: SaOS-2 split-luciferase Mdm2/MdmX complementation, at 8 µM
Screen size: about 330,000 compounds; about 10,000 (3%) were called active.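 Rule for the calls: active = inhibition of at least 50% at 8 µM in the primary screen; inactive = the rest.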 This excerpt belongs to a sample that is enriched for actives.
Response enum: active, inactive

Field: example entries. Status: answers known.
[
  {
    "molecule": "Cc1ccc(-n2nc3c(=O)n(C(C)C(=O)NCc4ccc5c(c4)OCO5)nc(C)c3c2C)cc1 (configuration not stated)",
    "discreteLabel": "inactive"
  },
  {
    "molecule": "CN(c1ccc(OCC(=O)NC2=NCCS2)cc1)S(=O)(=O)c1ccc(F)cc1",
    "discreteLabel": "inactive"
  },
  {
    "molecule": "CCCCn1c(N)c(N(CCC(C)C)C(=O)COC(=O)c2ccc(CC)cc2)c(=O)[nH]c1=O",
    "discreteLabel": "inactive"
  },
  {
    "molecule": "CCC1=Nc2cc(C(=O)NCCN3CCCC3)ccc2Sc2ccc(C)cc21",
    "discreteLabel": "inactive"
  },
  {
    "molecule": "COc1ccc(C(=O)NC(=S)NNC(=O)CCc2ccccc2)cc1",
    "discreteLabel": "active"
  },
  {
    "molecule": "COc1ccc2sc(-c3ccc(S(C)(=O)=O)cc3)c(-c3ccc(C(N)=O)cc3)c2c1",
    "discreteLabel": "inactive"
  },
  {
    "molecule": "O=C(COC(=O)/C(=C/c1cccs1)c1cccs1)NCc1ccccc1Cl",
    "discreteLabel": "inactive"
  },
  {
    "molecule": "CN(C(=O)c1cccc(NC(=O)Cc2cccc([N+](=O)[O-])c2)c1)C1CCCCC1",
    "discreteLabel": "inactive"
  }
]

Query: What call does the record list for `CCCc1ccc(OCCNC(=O)c2ccco2)cc1` ?
Response: inactive

Query: What call does the record list for `C=CCC(CC=C)(C(N)=O)c1ccccc1` ?
Response: inactive

Query: What call does the record list for `Cc1ccc(C)c(CN2CCC(CNC(=O)Nc3ccc(C)c(F)c3)CC2)c1` ?
Response: inactive

Query: What call does the record list for `CC(=O)Nc1ccc(C(=O)/C=C/c2ccc[nH]2)cc1` ?
Response: inactive

Query: What call does the record list for `CCOc1cc(NC(=O)c2ccco2)c(OCC)cc1NC(=O)COc1ccccc1` ?
Response: active

Query: What call does the record list for `Cc1cccc(CN2CCC(CNC(=O)Nc3ccc(F)c(Cl)c3)CC2)c1` ?
Response: active

Query: What call does the record list for `CCS(=O)(=O)c1ccc(C(=O)NC)c(Cl)c1Cl` ?
Response: inactive
